- testMethodNotes: Inhibition of RIP1 in human U937 cells assessed as prevention of TNFalpha/zVAD.fmk-induced necrotic cell death preincubated for 30 to 60 mins followed by TNF-alpha induction measured after overnight incubation by Cell Titer-Glo luminescence assay
Exam item: assign Condition met to entries whose IC50 is below 600 nM and Condition not met to entries at or above 600 nM. Note that a value of exactly 600 nM receives Condition not met.

For orientation, consider the following solved cases.
* Nc1ncnc2occ(-c3ccc(NC(=O)Nc4cccc(C(F)(F)F)c4F)cc3)c12 | Condition not met
* Nc1ncnc2occ(-c3ccc(NC(=O)Nc4ccc(Cl)c(C(F)(F)F)c4)cc3)c12 | Condition not met
* Nc1ncnc2occ(-c3ccc(NC(=O)Nc4ccc5ccccc5c4)cc3)c12 | Condition not met
* COc1cccc(NC(=O)Nc2cccc(-c3c[nH]c4ncc(-c5ccccc5)cc34)c2)c1 | Condition met
* O=C(Nc1cccc(-c2c[nH]c3ncc(-c4ccccc4)cc23)c1)Nc1cc(C(F)(F)F)ccc1F | Condition met
* Nc1ncnc2occ(-c3ccc(NC(=O)Nc4cc(F)cc(C(F)(F)F)c4)cc3)c12 | Condition not met
* Nc1ncnc2occ(-c3ccc(NC(=O)Nc4cccc(Cl)c4)cc3)c12 | Condition not met
* CS(=O)(=O)c1cccc(-c2cnc3[nH]cc(-c4cccc(NC(=O)Nc5cc(C(F)(F)F)ccc5F)c4)c3c2)c1 | Condition met

Bench note: check whether Nc1ccc(-c2cnc3[nH]cc(-c4cccc(NC(=O)Nc5cc(C(F)(F)F)ccc5F)c4)c3c2)cc1 shows IC50 below 600 nM Condition met

Bench note: check whether Nc1nccc2c(-c3ccc(NC(=O)Nc4ccc(Cl)c(C(F)(F)F)c4)cc3)cccc12 shows IC50 below 600 nM Condition not met

Bench note: check whether O=C(Nc1cccc(-c2c[nH]c3ncc(-c4cccnc4)cc23)c1)Nc1cc(C(F)(F)F)ccc1F shows IC50 below 600 nM Condition met

Bench note: check whether O=C(Nc1cccc(-c2c[nH]c3ncc(-c4cn[nH]c4)cc23)c1)Nc1cc(C(F)(F)F)ccc1F shows IC50 below 600 nM Condition met

Bench note: check whether CCS(=O)(=O)c1ccc(-c2cnc3[nH]cc(-c4cccc(NC(=O)Nc5cc(C(F)(F)F)ccc5F)c4)c3c2)cc1 shows IC50 below 600 nM Condition met

Bench note: check whether Nc1ncnc2occ(-c3ccc(NC(=O)Nc4cc(C(F)(F)F)cc(C(F)(F)F)c4)cc3)c12 shows IC50 below 600 nM Condition not met

----------
- testMethodNotes: Inhibition of RIP1 in human U937 cells assessed as prevention of TNFalpha/zVAD.fmk-induced necrotic cell death preincubated for 30 to 60 mins followed by TNF-alpha induction measured after overnight incubation by Cell Titer-Glo luminescence assay
Kindly supply the reported IC50 values for the records listed here.
Answers are plain numbers, in nM.

* Nc1nccc2c(-c3ccc(NC(=O)Nc4cc(C(F)(F)F)ccc4F)cc3)cccc12 | 630
* CC(=O)c1cccc(NC(=O)Nc2cccc(-c3c[nH]c4ncc(-c5ccccc5)cc34)c2)c1 | 320
* Nc1nccc2c(-c3ccc(NC(=O)Nc4cc(F)cc(C(F)(F)F)c4)cc3)cccc12 | 2500
* O=C(Nc1cccc(-c2c[nH]c3ncc(-c4ccccc4)cc23)c1)NC1CCCC1 | 7900

// for each compound in input: emit IC50
1. CC(C)(C)c1cc(NC(=O)Nc2ccc(-c3coc4ncnc(N)c34)cc2)no1
2. NC(=O)c1cccc(-c2cnc3[nH]cc(-c4cccc(NC(=O)Nc5cc(C(F)(F)F)ccc5F)c4)c3c2)c1
3. Nc1ncnc2occ(-c3ccc(NC(=O)Nc4cccc(C(F)(F)F)c4)cc3)c12
4. Nc1ncnc2occ(-c3ccc(NC(=O)Nc4ccc(F)c(C(F)(F)F)c4)cc3)c12
5. O=C(Nc1cccc(-c2c[nH]c3ncc(-c4ccccc4)cc23)c1)Nc1cccc(C(F)(F)F)c1

1: 200; 2: 63; 3: 1000; 4: 1300; 5: 79

// for each compound in input: emit IC50
1. O=C(Nc1cccc(-c2c[nH]c3ncc(-c4ccccc4)cc23)c1)Nc1cccc([N+](=O)[O-])c1
2. Nc1nccc2c(-c3ccc(NC(=O)Nc4cccc(C(F)(F)F)c4)cc3)cccc12
3. CCc1cccc(NC(=O)Nc2ccc(-c3coc4ncnc(N)c34)cc2)c1
4. Nc1nccc2c(-c3ccc(NC(=O)Nc4ccc(F)c(C(F)(F)F)c4)cc3)cccc12
5. O=C(Nc1ccccc1)Nc1cccc(-c2c[nH]c3ncc(-c4ccccc4)cc23)c1

320
630
250
2500
600
